This listing pairs binders with measured Binding (FOI).
target: T1, human CD3 expressed on cells (Jurkat cells; human primary T cells) (human, UniProt P07766 23-207; P04234 22-171; P09693 23-182); assay: flow cytometry, 25 nM, human primary T cells
T1 construct: whole, on cells
T1 sequence (P07766 23-207, chain 1 of 3): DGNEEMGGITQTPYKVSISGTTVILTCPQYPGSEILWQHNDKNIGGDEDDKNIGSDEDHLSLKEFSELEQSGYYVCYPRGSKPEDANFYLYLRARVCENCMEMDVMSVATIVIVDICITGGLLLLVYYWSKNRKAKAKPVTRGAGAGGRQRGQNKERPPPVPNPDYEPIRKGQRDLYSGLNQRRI
T1 sequence (P04234 22-171, chain 2 of 3): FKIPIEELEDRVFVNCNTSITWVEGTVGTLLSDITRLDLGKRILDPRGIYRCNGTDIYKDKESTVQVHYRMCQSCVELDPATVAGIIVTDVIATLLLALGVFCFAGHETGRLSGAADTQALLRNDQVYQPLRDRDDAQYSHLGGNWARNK
T1 sequence (P09693 23-182, chain 3 of 3): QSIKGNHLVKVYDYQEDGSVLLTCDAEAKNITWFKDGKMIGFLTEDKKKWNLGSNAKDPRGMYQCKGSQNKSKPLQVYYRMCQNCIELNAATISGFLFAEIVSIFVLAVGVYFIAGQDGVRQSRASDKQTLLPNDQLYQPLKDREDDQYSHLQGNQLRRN
Please answer using a numeric value trailed by its unit.

Solved entries (count: 2):
- Binder: "mAb 201 (antibody, V domains shown, VH/VL only) VH: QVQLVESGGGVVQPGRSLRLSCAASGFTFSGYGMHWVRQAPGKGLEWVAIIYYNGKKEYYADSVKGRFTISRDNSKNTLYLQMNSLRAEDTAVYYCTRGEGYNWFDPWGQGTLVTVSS VL: EIVMTQSPATLSVSPGERATLSCRASQSVSSSLAWYQQKPGQAPRLLIYGASTRATGIPARFSGSGSGTEFTLTISSLQSEDFAVYYCQQYNNWPLTFGGGTKVEIK"
  Reported property: "Binding (FOI)"
  Observed measurement: "210 FOI"
- Binder: "mAb 215 (antibody, V domains shown, VH/VL only; the VL is printed as a fragment of 18 residues only) VH: QVQLVESGGGVVQPGRSLRLSCAATGFTFSGYGMHWVRQAPGKGLEWVAIIYYNGNNRKYADSVKGRFTISRDNSKNTVSLQMNSLRVEDTAIYYCTRGDGYNWFVTWGQGTLVTVSS VL: EIVMTQSPATLSVSPGERATLSCRASQSVSSNLAWYRQKPGQAPRLLIYGASTRATGIPVRFSGSGSGTEFTLTISSLQSEDFAVYYCQQYNNWPLTFGGGTKVEIK"
  Reported property: "Binding (FOI)"
  Observed measurement: "202 FOI"

Consider the record given below.
So what's the measured Binding (FOI) for this one? mAb 212 (antibody, V domains shown, VH/VL only) VH: EVQLLESGGGLVQPGGSLRLSCAASGFTFSNYAMNWVRQAPGKGLEWVSAISGSRSNTYYADSVKGRFTISRDNSKNTLYLQMNSLRAEDTGVYYCAKGAYSKYPYYYYMDVWGKGTTVTVSS VL: EIVMTQSPATLSLSPGERATLSCRASQSVSSSYLSWYQQKPGQAPRLLIYGASTRAIGIPARFSGSGSGTDFTLTISSLQAEDFAVYYCQQDDNLPWTFGQGTKVEIK 160 FOI

Source listed as patent US20230295310A1.
